Attribution: ChEMBL document CHEMBL1671837

molecules and their reported IC50
- system.under.test: Prostaglandin G/H synthase 2 (Mus musculus, UniProt Q05769)
- Sequence (Q05769 whole entry): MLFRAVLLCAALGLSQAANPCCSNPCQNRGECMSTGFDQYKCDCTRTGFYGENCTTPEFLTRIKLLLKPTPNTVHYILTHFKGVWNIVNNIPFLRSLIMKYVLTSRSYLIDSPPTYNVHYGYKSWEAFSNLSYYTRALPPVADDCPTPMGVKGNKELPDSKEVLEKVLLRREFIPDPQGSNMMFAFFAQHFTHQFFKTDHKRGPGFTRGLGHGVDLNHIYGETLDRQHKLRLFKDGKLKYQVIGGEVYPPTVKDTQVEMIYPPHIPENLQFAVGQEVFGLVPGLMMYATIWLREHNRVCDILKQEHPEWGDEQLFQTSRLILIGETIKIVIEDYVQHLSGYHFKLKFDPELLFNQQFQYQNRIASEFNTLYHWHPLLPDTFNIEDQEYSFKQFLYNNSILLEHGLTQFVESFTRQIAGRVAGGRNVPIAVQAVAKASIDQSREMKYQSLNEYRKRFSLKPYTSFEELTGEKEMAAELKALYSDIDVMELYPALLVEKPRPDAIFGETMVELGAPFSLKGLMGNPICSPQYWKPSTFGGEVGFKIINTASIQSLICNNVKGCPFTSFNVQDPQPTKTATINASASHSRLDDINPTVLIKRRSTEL
- procedure.summary: Inhibition of COX2 in mouse LPS-stimulated RAW264.7 cells after 30 mins
assay.metric: IC50 (µM)

- test.smiles: "CCOC(=O)c1cc(-c2ccc(I)cc2)n(-c2ccc(S(N)(=O)=O)cc2)n1"
  recorded.result: 2.7
- test.smiles: "CS(=O)(=O)c1ccc(-n2nc(C(F)(F)F)cc2-c2ccc(I)cc2)cc1"
  recorded.result: 0.03
